- Test system: LOC_OS03G12390-cb001;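 also: purified Escherichia coli-expressed rice kinase domain construct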
- method.description: thermal shift delta Tm vs DMSO control; higher = stronger stabilization (binding)
- conditions.used: 12.5 µM; protein concentration 2 µM
This section presents compounds with their documented thermal shift delta Tm values.
Could you kindly put the unit after your number?

Here's what some known entries look like.
compound	outcome.measure	readout.value
COc1ccc(COc2cc3oc(=O)c4cc(C(C)O)ccc4c3cc2OC)cc1 (centres undefined)	thermal shift delta Tm	-0.47 °C
O=c1nc(N2CCOCC2)oc2c(-c3cccc4c3sc3ccccc34)cccc12	thermal shift delta Tm	-0.44 °C
NC(=O)Nc1cc(-c2cccc(F)c2)sc1C(=O)N[C@H]1CCCNC1	thermal shift delta Tm	2.87 °C

QUERY: Requested read-out: thermal shift delta Tm. Entry: `CN(C[C@@H]1COCCO1)S(=O)(=O)Nc1ccc2ccc3ncc(-c4cnn(C)c4)cc3c(=O)c2c1`
RESULT: 0.09 °C

QUERY: Next: `COc1ccc2c(c1)[C@]1(C[C@H]1c1ccc3c(/C=C/c4ccc(CN5C[C@@H](C)O[C@@H](C)C5)cc4)n[nH]c3c1)C(=O)N2`
RESULT: 0.7 °C

QUERY: Next: CCOc1cc2ncc(C#N)c(Nc3ccc(F)c(Cl)c3)c2cc1NC(=O)/C=C/CN(C)C [Pelitinib (EKB-569)]
RESULT: 0.42 °C

QUERY: Next: `O=C(/C=C/c1ccc(O)c(O)c1)c1ccc(O)cc1O`
RESULT: 3.8 °C

QUERY: Next: `Cc1cnc(NC(=O)Nc2cc(Br)c(C)cc2OC[C@@H]2CNCCO2)cn1`
RESULT: 0.98 °C

QUERY: Next: `Cc1c[nH]c2nc(Nc3ccc(N4CCN(C)CC4)c(F)c3)nc(-c3cccc(CC#N)c3)c12`
RESULT: 13 °C
